- target.under.test: human TOR (Homo sapiens, UniProt P42345)
- Construct: FLAG
- test.protocol: mTOR enzyme assay (DELFIA, His6-S6K substrate)
- Format: biochemical
- stated.conditions: read-out: mTOR Kinase Avg. IC50
recorded.endpoint: IC50 (nM)

[[record]]
compound = "CCn1c(C)c(/C=C2\\Oc3ccc(NC(=O)Nc4ccc(CCCN(C)C)cc4)cc3C2=O)c2cc(OC)ccc21 [Compound 671]"
result = 220

[[record]]
compound = "CNC(=O)Nc1ccc2c(c1)C(=O)/C(=C/c1c(-c3c(C)nn(C)c3C)n(CCN3CCNCC3)c3ccc(OC)cc13)O2 [Compound 656]"
result = 35

[[record]]
compound = "CNC(=O)Nc1ccc2c(c1)C(=O)/C(=C/c1c(C#N)n(CCN3CCN(C)CC3)c3ccc(OC)cc13)O2 [Compound 628]"
result = 150


a. N#CCCCn1c(-c2cccnc2)c(C=C2Oc3cc(O)cc(O)c3C2=O)c2ccccc21 [Example 226]
b. CNCCNC(=O)c1ccc(NC(=O)Nc2ccc3c(c2)C(=O)/C(=C/c2c(C)n(C)c4ccc(OC)cc24)O3)cc1 [Compound 661]
So which one has the bigger IC50 here, a or b ? API: response body contains the label of the selected item.
a
